- Test system: hen osteoclasts
- Protocol Details: inhibition of in vitro bone resorption activity of hen osteoclasts
- Type: cell-based
- Test Parameters: Table 3, concentration 1 × 10^-9; mean ± SE, n=3-6
Measured Parameter: percent of control bone resorption (%)
# value in %; strip the unit string

{"Compound": "COC[C@H]1OC(=O)c2coc3c2[C@@]1(C)C1=C(C3=O)[C@@H]2CCC(=O)[C@@]2(C)CC1", "percent of control bone resorption, %": 106}
{"Compound": "COC[C@H]1OC(=O)c2coc3c2[C@@]1(C)C1=C(C3=O)[C@@H]2CC[C@H](O)[C@@]2(C)CC1 [IIIb, 11-Desacetoxy-17α-dihydrowortmannin]", "percent of control bone resorption, %": 124}
{"Compound": "COC[C@H]1OC(=O)c2coc3c2[C@@]1(C)C1=C(C3=O)[C@@H]2CC[C@H](O)[C@@]2(C)C[C@H]1OC(C)=O [IIIa, 17α-Dihydrowortmannin]", "percent of control bone resorption, %": 94}

// lookup percent of control bone resorption for Cc1c2c(c(O)c3occ(C(=O)O)c13)[C@@H]1CCC(=O)[C@@]1(C)C=C2
93

---

- System: hen osteoclasts
- Protocol Details: inhibition of in vitro bone resorption activity of hen osteoclasts
- Assay type: cell-based
- Test Parameters: Osteoclast; hen osteoclasts; analogs, Example 2; read-out: IC50, resorption of hen osteoclasts
- Protocol: Control resorption in Table 2b corresponded to 12-62 Howship's lacunae per bone slice (n=4-4. mean ±SE). As summarized in Table 3, the various analogs inhibited the resorption of hen osteoclasts with IIIA IC50=10 nM; IIIb, IC50=100 nM; and Ib, IC50=500 nM. Data presented are percent of control bone resorption (n=3-6, mean ±SE). Control levels of resorption varied from 26-49 mg bone resorbed between days 4-6 in culture.
Measured Parameter: pIC50
Reminder that pIC50 is minus the log10 of a molar concentration.

Given the entry COC[C@H]1OC(=O)c2coc3c2[C@@]1(C)C1=C(C3=O)[C@@H]2CCC(=O)[C@@]2(C)CC1 [Ib, 11-deacetoxywortmannin] , what pIC50 was observed with hen osteoclasts?
6.30
